System: NCI-H295R
Assay: AC50 viability; higher = less potent
Details: 48 h
# key: entry, value: AC50 viability
Measurement kind: AC50 viability (µM)

[[record]]
mol_smiles = "Cc1ccc(NC(=O)c2ccc(CN3CCN(C)CC3)cc2)cc1Nc1nccc(-c2cccnc2)n1"
unit_of_measure = "µM"
recorded_result = 20.9

[[record]]
mol_smiles = "COc1nc(OCc2cccc(-c3ccccc3)c2C)ccc1CNCCNC(C)=O"
unit_of_measure = "µM"
recorded_result = 5.9

[[record]]
mol_smiles = "C=CC(=O)Nc1cc(Nc2nccc(-c3cn(C)c4ccccc34)n2)c(OC)cc1N(C)CCN(C)C"
unit_of_measure = "µM"
recorded_result = 9.34


###

Tested on: NCI-H295R
Assay: area under concentration-response curve (viability) (AUC (a.u.)); higher = less active
Conditions: 48 h
Measurement kind: area under concentration-response curve

[[record]]
molecule = "CC(C)(C)c1cc(NC(=O)Nc2ccc(-c3cn4c(n3)sc3cc(OCCN5CCOCC5)ccc34)cc2)no1"
measurement_kind = "area under concentration-response curve"
recorded_result = 511

[[record]]
molecule = "OC[C@H]1OCC(O1)[N@@]2C=CC(N)=NC2=O (some centres undefined)"
measurement_kind = "area under concentration-response curve"
recorded_result = 494

[[record]]
molecule = "Cc1nn(C)c(COc2ccc(N3CCN([S+](=O)([O-])N(C)C)CC3)cc2)c1-c1cccc2c(CCCOc3cccc4ccccc34)c(C(=O)O)n(CCN3CCOCC3)c12"
measurement_kind = "area under concentration-response curve"
recorded_result = 508

[[record]]
molecule = "Cc1ccc(C(=O)Nc2ccc([S+](=O)([O-])O)c3cc([S+](=O)([O-])O)cc([S+](=O)([O-])O)c23)cc1NC(=O)c1cccc(NC(=O)Nc2cccc(C(=O)Nc3cc(C(=O)Nc4ccc([S+](=O)([O-])O)c5cc([S+](=O)([O-])O)cc([S+](=O)([O-])O)c45)ccc3C)c2)c1"
measurement_kind = "area under concentration-response curve"
recorded_result = 488


###

Test system: CU-ACC1
Test: area under concentration-response curve (viability) (AUC (a.u.)); higher = less active
Conditions: 48 h
# key: entry, value: area under concentration-response curve
Measurement kind: area under concentration-response curve

[[record]]
molecule = "CCN1CCN(Cc2ccc(NC(=O)c3ccc(C)c(NC(=O)c4cncc(-c5cccs5)c4)c3)cc2C(F)(F)F)CC1"
subject_of_test = "CU-ACC1"
measurement_kind = "area under concentration-response curve"
recorded_result = 501

[[record]]
molecule = "C=CC[N+]1([C@H]2C[C@H]3[C@@H]4CC[C@H]5C[C@H](O)[C@@H](N6CCOCC6)C[C@]5(C)[C@H]4CC[C@]3(C)[C@H]2OC(C)=O)CCCC1"
subject_of_test = "CU-ACC1"
measurement_kind = "area under concentration-response curve"
recorded_result = 597

[[record]]
molecule = "CC(O)c1cc(C(=O)N[C@@H](C)Cn2ccc(-c3ccc(C#N)c(Cl)c3)n2)n[nH]1 (stereo partly specified)"
subject_of_test = "CU-ACC1"
measurement_kind = "area under concentration-response curve"
recorded_result = 454

[[record]]
molecule = "F\\C1=C\\NC(=O)NC1=O"
subject_of_test = "CU-ACC1"
measurement_kind = "area under concentration-response curve"
recorded_result = 483

[[record]]
molecule = "Cc1cc(C)c(/C=C2\\C(=O)Nc3ccccc32)[nH]1"
subject_of_test = "CU-ACC1"
measurement_kind = "area under concentration-response curve"
recorded_result = 513

[[record]]
molecule = "C=C[C@H]1CN2CCC1C[C@@H]2C(O)c1ccnc2ccc(OC)cc12 (stereo partly specified)"
subject_of_test = "CU-ACC1"
measurement_kind = "area under concentration-response curve"
recorded_result = 509

[[record]]
molecule = "COc1cc([C@@H]2c3cc4c(cc3[C@@H](O[C@@H]3O[C@@H]5CO[C@@H](c6cccs6)O[C@H]5[C@H](O)[C@H]3O)[C@H]3COC(=O)[C@H]23)OCO4)cc(OC)c1O"
subject_of_test = "CU-ACC1"
measurement_kind = "area under concentration-response curve"
recorded_result = 509

[[record]]
molecule = "CC(C)C[C@H](NC(=O)[C@H](CCc1ccccc1)NC(=O)CN1CCOCC1)C(=O)N[C@@H](Cc1ccccc1)C(=O)N[C@@H](CC(C)C)C(=O)[C@@]1(C)CO1"
subject_of_test = "CU-ACC1"
measurement_kind = "area under concentration-response curve"
recorded_result = 302

[[record]]
molecule = "CCN([C@H]1CC[C@@H](CC1)N(C)CCOC)C2=C(C)C(=CC(=C2)C#CCN3CCOCC3)C(=O)NC\\C4=C(C)\\C=C(\\C)NC4=O"
subject_of_test = "CU-ACC1"
measurement_kind = "area under concentration-response curve"
recorded_result = 536

[[record]]
molecule = "CC1=CC=CC=C1N2\\C(=N/C3=C(C(=CC=C3)C)C2=O)C[N]4C=NC5=C4N=CN=C5N"
subject_of_test = "CU-ACC1"
measurement_kind = "area under concentration-response curve"
recorded_result = 555

[[record]]
molecule = "COc1cc(C(N)=O)ccc1NC(=O)[C@@H]1N[C@@H](CC(C)(C)C)[C@@]2(C(=O)Nc3cc(Cl)ccc32)[C@H]1c1cccc(Cl)c1F"
subject_of_test = "CU-ACC1"
measurement_kind = "area under concentration-response curve"
recorded_result = 495


###

Test system: CU-ACC1
Assay: area under concentration-response curve (viability) (AUC (a.u.)); higher = less active
Settings: 48 h
molecules and their reported area under concentration-response curve
Measurement kind: area under concentration-response curve

[[record]]
mol_smiles = "Nc1n[nH]c2nnc(-c3c(-c4ccccc4)nn4ccccc34)cc12"
recorded_result = 489

[[record]]
mol_smiles = "Cc1cnc(NC(=O)Nc2cc(Br)c(C)cc2OC[C@@H]2CNCCO2)cn1"
recorded_result = 486

[[record]]
mol_smiles = "CCNC(=O)Nc1ccc(Oc2ncnc(N)c2/C=N/OC)cc1Cl"
recorded_result = 509


###

Tested on: CU-ACC1
Assay: area under concentration-response curve (viability) (AUC (a.u.)); higher = less active
Details: 48 h
Measurement kind: area under concentration-response curve

[[record]]
compound = "O=C(NCc1ccccc1)[C@H](Cc1ccccc1)NC(=O)[C@H]1O[C@@H]1C(=O)NCCc1ccc(O)cc1"
recorded_result = 495

[[record]]
compound = "CN1[C@@H]2CCC[C@H]1CC(NC(=O)c1nn(C)c3ccccc13)C2 (stereo partly drawn)"
recorded_result = 511

[[record]]
compound = "CC1=CC=C(C=C1)\\C2=N\\C3=CC=C(Cl)C=C3OC2"
recorded_result = 504


###

Test system: NCI-H295R
Experiment: area under concentration-response curve (viability) (AUC (a.u.)); higher = less active
Conditions: 48 h
Measurement kind: area under concentration-response curve

[[record]]
compound = "Cc1cnc(Nc2ccc(OCCN3CCCC3)cc2)nc1Nc1cccc([S+](=O)([O-])NC(C)(C)C)c1"
measurement_kind = "area under concentration-response curve"
recorded_result = 501

[[record]]
compound = "Cc1ccc(N[S+](=O)([O-])c2cccc(C#N)c2)c2[nH]cc(C#N)c12"
measurement_kind = "area under concentration-response curve"
recorded_result = 489

[[record]]
compound = "Cc1noc(-c2ccc(CSCCC(=O)O)cc2)c1NC(=O)OC(C)c1ccccc1Cl (stereo not drawn)"
measurement_kind = "area under concentration-response curve"
recorded_result = 505


###

Tested on: NCI-H295R
Experiment: area under concentration-response curve (viability) (AUC (a.u.)); higher = less active
Details: 48 h
Reported values of area under concentration-response curve for individual entries
Measurement kind: area under concentration-response curve

[[record]]
compound = "Cc1cc(I)ccc1Nc1c(C(=O)NOCC2CC2)cc(F)c(F)c1F"
recorded_result = 490

[[record]]
compound = "Clc1cccc(C(c2ccc3nc[nH]c3c2)n2ccnc2)c1 (configuration not stated)"
recorded_result = 491

[[record]]
compound = "CCCCc1oc2ccc(N[S+](C)(=O)[O-])cc2c1C(=O)c1ccc(OCCCN(CCCC)CCCC)cc1"
recorded_result = 486

[[record]]
compound = "COc1ccc([S+](=O)([O-])Nc2cccnc2Nc2ccc(O)cc2)cc1"
recorded_result = 498

[[record]]
compound = "O=C1c2c(O)ccc(O)c2C(=O)c2c(NCCNCCO)ccc(NCCNCCO)c21"
recorded_result = 514

[[record]]
compound = "Cn1c(COP(=O)(NCCBr)NCCBr)cnc1[N+](=O)[O-]"
recorded_result = 514

[[record]]
compound = "C=CC(=O)Nc1cccc(Oc2nc(Nc3ccc(N4CCN(C)CC4)cc3OC)ncc2Cl)c1"
recorded_result = 502


###

Some compounds, each annotated with its measured area under concentration-response curve.
Tested on: CU-ACC2
Assay: area under concentration-response curve (viability) (AUC (a.u.)); higher = less active
Conditions: 48 h
Measurement kind: area under concentration-response curve

[[record]]
compound = "COc1cc(OC)cc(N2CCN(C(=O)Nc3nc4cc(F)ccc4nc3OC)CC2)c1"
subject_of_test = "CU-ACC2"
recorded_result = 556

[[record]]
compound = "O=C(c1ccc(F)c(F)c1Nc1ccc(I)cc1F)N1CC(O)([C@@H]2CCCCN2)C1"
subject_of_test = "CU-ACC2"
recorded_result = 299

[[record]]
compound = "CCN(CC)CCCC(C)Nc1nc(C)cc(Nc2ccc3nc(C)cc(N)c3c2)n1 (stereo not drawn)"
subject_of_test = "CU-ACC2"
recorded_result = 478

[[record]]
compound = "CO[C@H](C1COC1)C2=C(Cl)C3=C(CCN(C\\C4=C(OC)\\C=C(\\C)NC4=O)C3=O)C(=C2)Cl"
subject_of_test = "CU-ACC2"
recorded_result = 579

[[record]]
compound = "CCN(CCCOc1ccc2c(Nc3cc(CC(=O)Nc4cccc(F)c4)[nH]n3)ncnc2c1)CCOP(=O)(O)O"
subject_of_test = "CU-ACC2"
recorded_result = 579

[[record]]
compound = "C=C[C@H]1CN2CCC1C[C@@H]2[C@@H](O)c1ccnc2ccccc12 (stereo partly drawn)"
subject_of_test = "CU-ACC2"
recorded_result = 522

[[record]]
compound = "COc1cc2nc(-c3ccc(N4CCN(C)CC4)cc3)nc(NCCN3CCOCC3)c2cc1OC"
subject_of_test = "CU-ACC2"
recorded_result = 397

[[record]]
compound = "Cc1ccc(Nc2ncc3c(n2)N(C)C(=O)N(c2cc(NC(=O)c4cccc(C(F)(F)F)c4)ccc2C)C3)cn1"
subject_of_test = "CU-ACC2"
recorded_result = 504

[[record]]
compound = "CC(=O)N1CCC(Nc2cc(C(=O)NC[C@H](O)CN3CCc4ccccc4C3)ncn2)CC1"
subject_of_test = "CU-ACC2"
recorded_result = 558

[[record]]
compound = "C[C@H](NC(=O)CCC(F)(F)F)C(=O)N[C@@H]1C(=O)N(CCO)c2ncccc2-c2ccccc21"
subject_of_test = "CU-ACC2"
recorded_result = 511

[[record]]
compound = "Cc1cccc(-c2nn3c(c2-c2ccnc4ccc(C(N)=O)cc24)CCC3)n1"
subject_of_test = "CU-ACC2"
recorded_result = 628

[[record]]
compound = "Cn1ncc(Cl)c1-c1cc(C(=O)NC(CN)Cc2ccc(F)c(F)c2)oc1Cl (stereo not drawn)"
subject_of_test = "CU-ACC2"
recorded_result = 422

[[record]]
compound = "CC(Oc1ccc(O)cc1)(P(=O)(O)O)P(=O)(O)O"
subject_of_test = "CU-ACC2"
recorded_result = 508

